# STUDY TARGET: T1, glucose-dependent insulinotropic peptide (gastric inhibitory polypeptide) receptor (GIPR), primary cAMP assay … (human, UniProt P48546 22-466)
# T1 sequence (looked up): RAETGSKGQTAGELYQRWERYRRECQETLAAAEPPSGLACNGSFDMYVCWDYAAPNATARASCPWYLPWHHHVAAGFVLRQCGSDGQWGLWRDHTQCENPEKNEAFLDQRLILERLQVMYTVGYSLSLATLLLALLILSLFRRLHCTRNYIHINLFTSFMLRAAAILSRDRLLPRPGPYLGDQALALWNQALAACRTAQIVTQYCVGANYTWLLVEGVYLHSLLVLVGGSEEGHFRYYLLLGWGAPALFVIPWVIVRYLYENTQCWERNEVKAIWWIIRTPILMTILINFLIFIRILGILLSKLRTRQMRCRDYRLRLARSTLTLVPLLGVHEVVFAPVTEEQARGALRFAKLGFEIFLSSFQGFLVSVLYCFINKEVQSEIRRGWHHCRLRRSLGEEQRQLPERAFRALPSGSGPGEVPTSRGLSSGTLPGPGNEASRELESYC
# ASSAY PROTOCOL: cell-based or functional assay
Starred links: 1 amine or outer side, 2 acyl side, 3 side chain; linkers in the order of their positions; H or OH if unused. Non-standard residues stand in square brackets, D forms with d. Groups on a side chain read outwards from the residue. Primed or numbered codes have the meaning given here. No end group written: not given here. *: point of attachment. γGlu = O=C(O)[C@H](CCC(=O)[*:2])N[*:1]; αMeF = C[C@](N)(Cc1ccccc1)C(=O)O; αMeK = C[C@](N)(CCCCN)C(=O)O; Lauroyl = CCCCCCCCCCCC(=O)*; αMeS = C[C@](N)(CO)C(=O)O; PEG2′ = not defined here; Aib = CC(C)(N)C(=O)O
MEASUREMENT LABEL: cAMP Primary assay EC50, n2 (nM)

H[Aib]EGS[αMeF]TSDV[αMeS]SK([PEG2′-PEG2′-γGlu-Lauroyl])LEGEAA[αMeK]K([PEG2′-PEG2′-γGlu-Lauroyl])FIK([PEG2′-PEG2′-γGlu-Lauroyl])FVVEGG-NH2 [SEQ ID NO: 450] | 19.9
H[Aib]EGS[αMeF]TSDVSK([PEG2′-PEG2′-γGlu-Lauroyl])YLEGK([PEG2′-PEG2′-γGlu-Lauroyl])AA[αMeK]EFIK([PEG2′-PEG2′-γGlu-Lauroyl])FVVEGG-NH2 [SEQ ID NO: 444] | 19.7
H[Aib]EGS[αMeF]TSDK([PEG2′-PEG2′-γGlu-Lauroyl])SSYLEGEAA[αMeK]K([PEG2′-PEG2′-γGlu-Lauroyl])FIK([PEG2′-PEG2′-γGlu-Lauroyl])FVVEGG-NH2 [SEQ ID NO: 442] | 19.7
H[Aib]EGS[αMeF]TSDV[αMeS]SK([PEG2′-PEG2′-γGlu-Lauroyl])LEGEK([PEG2′-PEG2′-γGlu-Lauroyl])A[αMeK]EFIAFK([PEG2′-PEG2′-γGlu-Lauroyl])VEGG-NH2 [SEQ ID NO: 481] | 19.8
